Measured MIC, listed per entry.
# System: Klebsiella pneumoniae
# protocol.details: Antimicrobial activity against blaKPC-positive Klebsiella pneumoniae S14 by broth microdilution method
# Format: functional

{"compound": "CC(C)(O/N=C(\\C(=O)N[C@@H]1C(=O)N2C(C(=O)[O-])=C(C[n+]3ccccc3)CS[C@H]12)c1csc(N)n1)C(=O)O [CEFTAZIDIME]", "MIC": "> 64 µg/mL"}
{"compound": "CN(C)c1cc(NC(=O)CNC(C)(C)C)c(O)c2c1C[C@H]1C[C@H]3[C@H](N(C)C)C(O)=C(C(N)=O)C(=O)[C@@]3(O)C(O)=C1C2=O [TIGECYCLINE]", "MIC": "0.25 µg/mL"}
{"compound": "C[C@H]1[C@H](NC(=O)/C(=N\\OC(C)(C)C(=O)O)c2csc(N)n2)C(=O)N1S(=O)(=O)O [AZTREONAM]", "MIC": "> 64 µg/mL"}
